Data provenance: patent US20200055935A1

# Target or system: human TIM-3 coupled to Fc (human, UniProt Q8TDQ0 22-200)
# Method description: SPR; crude periplasmic extract
Assay endpoint: koff

Query block: Looking for the measured koff of anti-TIM-3 antibody clone 2C7 (antibody, V domains shown) VH: QVQLQQWGAGLLKPSETLSLTCAVYGGSFSGYYWSWIRQPPGKGLEWIGEINHSGSTNYNPSLKSRVTISVDTSKNQFSLKLSSVTAADTAVYYCARGYVAGYDYWGQGTLVTVSS VL: QSVLTQPPSVSAAPGQKVTISCSGSSSNIGNNYVSWYQQLPGTAPKLLIYGNNWRPSGIPDRFSGSKSGTSATLGITGLQTGDEADYYCDSWDSYLAAGVFGGGTKLTVL , can you help?
Result block: 0.00019 s⁻¹
